# Test system: Fibrinogen (Alexa647-labelled)
# protocol-text: Alexa647-fibrinogen binding to printed small molecules – biochemical, small-molecule microarray, 635/667 nm fluorescence, artefact control for SMM control-protein annotation, profiling panel (AID 1131);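 note: z-score merges 667 nm fluorescence with per-spot signal-to-noise over triplicate slides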
# protocol-conditions: fibrinogen-A647 binding fluorescence, higher = more signal
Measured composite z-score values are reported for all entries that follow.

{"columns": ["molecule", "composite z-score"],
 "data": [
  ["NCCCCCNC(=O)[C@H]1C[C@H]2C(=O)N3CCC[C@H]3C(=O)N2[C@H]1c1cccc(OCCO)c1", 0.83],
  ["CCCCN1CC=CC23O[C@@H]4/C=C\\CCC(C)OC(=O)C4[C@H]2C(=O)N(CCCO)[C@@H]3C1=O (stereo not given in full)", -0.992],
  ["O=C1OCCC=C[C@H]2OC34C=CCN(Cn5nnc6ccccc65)C(=O)[C@H]3N(CCCO)C(=O)[C@@H]4C12 (stereo not given in full)", -0.975],
  ["COC(=O)c1c(CC[C@@H](CO)NC(=O)N2CCC[C@H]2Cn2cc(C3(O)CCCCC3)nn2)oc(C(C)=O)c1C(=O)OC", 0.888],
  ["C=CC[C@@H](OC(=O)Nc1ccc(SC)cc1)c1ccc(O)c(F)c1", 0.221]
]}

Each recorded value in this set is attributed to PubChem BioAssay.
